experimental_system: human histamine H4 receptor (SP9144) (Homo sapiens)
Construct: expressed in transfected cells; host or cells: HEK293
measurement_notes: Competition binding versus [3H]-histamine on membranes of SP9144-transfected HEK293 cells
condition_notes: read-out: Ki ± SEM versus [3H]histamine binding to SP9144-transfected HEK293 cells; 18 nM [3H]-histamine, 70 μg membrane protein; Ki from IC50 by Cheng and Prusoff
readout_type: pKi
Numbers only, as −log10 of the molar value.

Lab book: pKi of CN(C)CCCSC(=N)N noted as 6.42

====

Would you mind telling me the reported log10 of Ki of each entry?
experimental_system: human H4 (H4-HEK293 cells) (Homo sapiens, UniProt Q9H3N8)
Construct: expressed in transfected cells
Sequence (Q9H3N8 whole entry): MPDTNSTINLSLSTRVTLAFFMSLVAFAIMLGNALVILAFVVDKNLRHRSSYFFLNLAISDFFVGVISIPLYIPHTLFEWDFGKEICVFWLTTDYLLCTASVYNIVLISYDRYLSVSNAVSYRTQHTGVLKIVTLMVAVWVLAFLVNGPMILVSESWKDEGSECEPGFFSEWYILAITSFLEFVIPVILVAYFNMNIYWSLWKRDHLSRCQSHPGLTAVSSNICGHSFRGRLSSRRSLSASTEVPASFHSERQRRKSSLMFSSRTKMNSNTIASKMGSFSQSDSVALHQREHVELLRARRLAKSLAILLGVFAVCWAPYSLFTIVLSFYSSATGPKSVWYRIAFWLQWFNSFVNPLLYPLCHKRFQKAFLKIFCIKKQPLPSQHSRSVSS
measurement_notes: Membrane binding assay, [3H]-histamine, for H4 binding
condition_notes: membrane binding, [3H]-histamine; read-out: H4 Ki
Friendly reminder: values = log10 of Ki, unit nM.

# example entries with known answers
{"columns": ["molecule", "log10 of Ki"],
 "data": [
  ["O=C(/C=C/c1ccc(Cc2c[nH]cn2)cc1)NCCc1ccc(Cl)cc1", 3.04],
  ["O=C(NCc1ccc(Cc2c[nH]cn2)cc1)Nc1cc(Cl)cc(Cl)c1", 2.51],
  ["Clc1ccc(C(CCNCCCCc2c[nH]cn2)c2ccccn2)cc1 (stereo not drawn)", 2.68],
  ["O=C(c1ccccn1)N1CCC(Cc2c[nH]cn2)CC1", 1.58],
  ["CC(C)(C)c1ccc(S(=O)(=O)NCCCCc2c[nH]cn2)cc1", 2.93],
  ["O=C(CCN1CCC(Cc2c[nH]cn2)CC1)Nc1cccc(Cl)c1", 1.96],
  ["CC(C)(C)CCC#C[C@@H]1C[C@H]1c1c[nH]cn1", 1.95],
  ["CN1CCC(N(C)Cc2ccc(OCCCN3CCC(Cc4c[nH]cn4)CC3)cc2)CC1", 2.51]
]}

According to the records, this molecule Clc1ccc(C(=C2CCN(CCCCCc3c[nH]cn3)CC2)c2ccccn2)cc1 displays log10 of Ki of 2.89

====

Please go through the items and note down their Ki.
experimental_system: human histamine H4 receptor (SP9144) (Homo sapiens)
Construct: expressed in transfected cells; host or cells: HEK293
measurement_notes: Competition binding versus [3H]-histamine on membranes of SP9144-transfected HEK293 cells
condition_notes: 18 nM [3H]-histamine; cells printed in μM

{"columns": ["molecule", "Ki"],
 "data": [
  ["CN/C(=N/CCSCc1nc[nH]c1C)NC#N [Cimetidine]", "> 10 µM"]
]}

So the reported Ki for CN(C)CCC(c1ccc(Cl)cc1)c1ccccn1 (centres unmarked) [Chlorpheniramine] , on human histamine H4 receptor (SP9144) (Homo sapiens), turned out to be > 10 µM

====

experimental_system: human H4 (H4-HEK293 cells) (Homo sapiens)
Construct: expressed in transfected cells
measurement_notes: Membrane binding assay, [3H]-histamine, for H4 binding
condition_notes: membrane binding, [3H]-histamine; read-out: H4 Ki
readout_type: pKi
One number for each entry, as −log10 of the molar value.

{"columns": ["molecule", "experimental_system", "value"],
 "data": [
  ["O=C(NCCCCc1c[nH]cn1)C1(c2ccc(Cl)cc2)CCC1", "human H4 (H4-HEK293 cells) (Homo sapiens)", 5.96],
  ["O=C(CCN1CCC(Cc2c[nH]cn2)CC1)NCCc1ccc(Cl)cc1", "human H4 (H4-HEK293 cells) (Homo sapiens)", 6.52],
  ["C/C(=C\\C(=O)Nc1ccc(Cl)cc1)c1ccc(Cc2c[nH]cn2)cc1", "human H4 (H4-HEK293 cells) (Homo sapiens)", 6.06],
  ["c1nc(CC2CCN(CCCOc3ccc(CN4CCCCC4)cc3)CC2)c[nH]1", "human H4 (H4-HEK293 cells) (Homo sapiens)", 6.54]
]}

Your task in this section: give pKi for each listed record.
1. Clc1ccc(C(=C2CCN(CCCCc3c[nH]cn3)CC2)c2ccccn2)cc1
2. O=C(c1cnc2ccccc2c1)N1CCC(Cc2c[nH]cn2)CC1
3. c1ccc2c(c1)C1CC(CNCCCCc3c[nH]cn3)C2c2ccccc21 (centres unmarked)
4. O=S(=O)(c1ccc(Cl)cc1)N1CCC(CCc2c[nH]cn2)C1 (centres unmarked)

Reply:
1: 6.41; 2: 7.42; 3: 6.36; 4: 6.69

====

experimental_system: human histamine H4 receptor (SP9144) (Homo sapiens)
Construct: expressed in transfected cells; host or cells: HEK293
measurement_notes: Competition binding versus [3H]-histamine on membranes of SP9144-transfected HEK293 cells
readout_type: Ki (nM)
One number for each entry, in nM.

{"columns": ["compound", "Ki, nM"],
 "data": [
  ["C[C@H](N)Cc1c[nH]cn1 [(S)-α-methylhistamine]", 3400],
  ["NC(=NCc1ccc(Cl)cc1)SCCCc1cnc[nH]1", 7.2],
  ["N=C(N)SCCc1cnc[nH]1", 3.1]
]}

Go through the items and report each one's Ki.
1. CNCCc1c[nH]cn1
2. C[C@@H](N)Cc1c[nH]cn1 [(R)-α-methylhistamine]

Reply:
1: 63; 2: 140

====

experimental_system: human H1 (H1-CHO cells) (Homo sapiens)
Construct: expressed in transfected cells
Sequence (P35367 whole entry): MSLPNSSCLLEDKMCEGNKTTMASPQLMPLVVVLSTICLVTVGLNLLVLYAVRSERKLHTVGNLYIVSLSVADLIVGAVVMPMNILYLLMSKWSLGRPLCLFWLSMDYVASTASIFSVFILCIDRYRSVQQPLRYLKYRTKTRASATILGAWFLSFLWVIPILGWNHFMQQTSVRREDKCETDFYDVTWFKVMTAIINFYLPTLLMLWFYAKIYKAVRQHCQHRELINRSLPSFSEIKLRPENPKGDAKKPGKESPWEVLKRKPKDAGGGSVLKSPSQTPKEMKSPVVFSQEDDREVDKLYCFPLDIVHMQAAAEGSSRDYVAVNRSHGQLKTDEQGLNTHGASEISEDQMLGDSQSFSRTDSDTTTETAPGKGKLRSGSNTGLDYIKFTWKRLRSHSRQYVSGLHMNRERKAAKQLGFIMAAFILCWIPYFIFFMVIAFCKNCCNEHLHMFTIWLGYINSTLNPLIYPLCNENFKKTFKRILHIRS
measurement_notes: Membrane binding assay, [3H]-pyrilamine, for H1 binding
condition_notes: concentration not given
Please go through the items and note down their H1 Ki, value given in %.
Give bare numbers, in %.

Solved entries (count: 4):
{"columns": ["smiles_record", "value"],
 "data": [
  ["CC(C)(C)c1ccc(S(=O)(=O)NCCCCc2c[nH]cn2)cc1", 32],
  ["O=C(/C=C/c1ccc(Cc2c[nH]cn2)cc1)NCCc1ccc(Cl)cc1", 0],
  ["O=C(c1cnc2ccccc2c1)N1CCC(Cc2c[nH]cn2)CC1", 0],
  ["O=C(NCCCCc1c[nH]cn1)C1(c2ccc(Cl)cc2)CCC1", 48]
]}

Sample O=C(NCc1ccc(Cc2c[nH]cn2)cc1)Nc1cc(Cl)cc(Cl)c1 , system: human H1 (H1-CHO cells) (Homo sapiens). Its H1 Ki, value given in % is 0

====

experimental_system: human H4 (H4-HEK293 cells) (Homo sapiens, UniProt Q9H3N8)
Construct: expressed in transfected cells
measurement_notes: Membrane binding assay, [3H]-histamine, for H4 binding
readout_type: pKi
Numbers only, as −log10 of the molar value.

Lab note: measured pKi of NC(=NCc1ccc(Cl)cc1)SCCCc1cnc[nH]1 was 7.47
